Tested on: OV90
Assay: Primary qHTS to identify gynecologic anti-cancer compounds using libraries of approved drugs and bioactive compounds (AID 1345084); further: nearly all actives have a fitted effect of over 55% in size; on activity change, negative = cytotoxicity: on the % scale 0 is the no-effect control and ±100 the full control effect
Settings: Gynecologic cancer cell panel viability, ATPlite luminescence, 48 h; series mostly up to 57.5 µM
Inconclusive results are not listed. Activity calls are given as the source filed them. The call rests on the fitted dose curve; in most records, active means well fitted cell-killing curve with a large enough effect; inconclusive means small, poorly fitted or top-dose-only effect, or effect the other way; inactive means flat fitted curve, though single readings scatter.
molecules and their reported activity change, negative = cytotoxicity

I'm curious: which activity change, negative = cytotoxicity was measured for CO[C@H]1C[C@H](O[C@H]2CC[C@@]3(C)C(=CCC4C3CC[C@]3(C)[C@@H](C5=CC(=O)OC5)CC[C@]43O)C2)O[C@@H](C)[C@@H]1O[C@@H]1O[C@H](CO[C@@H]2O[C@H](CO)[C@@H](O)[C@H](O)[C@H]2O)[C@@H](O)[C@H](O)[C@H]1O (some centres undefined) tested on OV90?
5.84% [at 11.6 µM] (inactive)

Another molecule to look at: CO[C@@H]1[C@@H](O)[C@@H](O[C@H]2CC[C@]3(C=O)C4CC[C@]5(C)[C@@H](C6=CC(=O)OC6)CC[C@]5(O)[C@@H]4CC[C@H]3C2)O[C@@H](C)[C@H]1O[C@@H]1O[C@H](CO[C@@H]2O[C@H](CO)[C@@H](O)[C@H](O)[C@H]2O)[C@@H](O)[C@H](O)[C@H]1O (some centres undefined)
8.02% [at 11.6 µM] (inactive)

Another molecule to look at: C[C@H]1CC[C@@H]2[C@@H](C)[C@H]3[C@H](C[C@H]4[C@@H]5CC=C6CC(O[C@@H]7O[C@H](CO)[C@@H](O)[C@H](O[C@@H]8O[C@H](CO)[C@@H](O)[C@H](O)[C@H]8O)[C@@H]7O[C@@H]7O[C@@H](C)[C@H](O)[C@@H](O)[C@H]7O)CC[C@]6(C)[C@H]5CC[C@]34C)N2C1 (some centres undefined)
-5.29% [at 11.6 µM] (inactive)

Another molecule to look at: C/C=C(\C)C(=O)OC1C2C3(C)CCC(OC4CC(OC)C(OC5OC(C)C(O)C(OC)C5O)C(C)O4)CC3CCC23OC32CCC(C(C)=O)C2(C)C1OC(=O)/C(C)=C/C (centres undefined)
2.67% [at 11.6 µM] (inactive)

---

Test: qHTS for Inhibitors of the Functional Ribonucleoprotein Complex (vRNP) of Lymphocytic Choriomeningitis Arenaviruses (LCMV): Viability assay - alamar blue signal for LCMV Primary Screen (AID 1347085); further: nearly all actives have a fitted effect of over 80% in size
Conditions: alamar blue viability counter-screen, LCMV vRNP screen cells; series mostly up to 57.5 µM
Results filed as inconclusive are left out. Calls of active or inactive are those of the source. Calls follow the shape of the full dose curve; tested in HEK293 reporter line.
Give one outcome, nothing more. List: 1 for active, 0 for inactive

Worked examples, 5 molecules total:
1) Cc1cc(N2CCOCC2)cc2[nH]c(-c3c(NC[C@@H](O)c4cccc(Cl)c4)cc[nH]c3=O)nc12 : 1
2) C=C(C)[C@@H]1CC[C@]2(C)CC[C@]3(C)[C@H](CC[C@@H]4[C@@]5(C)CC[C@H](O)C(C)(C)[C@H]5CC[C@]43C)[C@@H]12 : 0
3) CC(=O)OC[C@H]1O[C@@H](Oc2cc(O)cc3oc(-c4ccc(O)cc4)cc(=O)c23)[C@H](O[C@@H]2O[C@@H](C)[C@H](O)[C@@H](O)[C@H]2O)[C@@H](O)[C@@H]1O : 0
4) COc1ccc(OC)cc1 : 0
5) CN(C)CCN1C(=O)c2cccc3cc(N)cc(c23)C1=O : 1

Any idea what this test logged for O=C(OCCOCCO)c1ccccc1Nc1cccc(C(F)(F)F)c1 ?
0

Another molecule to look at: CCC(CC)C(=O)O
0

Another molecule to look at: COc1ccc(COC(C)=O)cc1
0

Another molecule to look at: CO[C@@H]1[C@@H](O)[C@H](O)[C@@H](n2c3c(Cl)cccc3c3c4c(c5c6cccc(Cl)c6[nH]c5c32)C(=O)NC4=O)O[C@@H]1CO
1

Another molecule to look at: COc1cc(C/C=C\c2ccccc2)c(OC)cc1O
0

Another molecule to look at: CCCCOC(=O)C(C)OC(=O)CCC (stereo unspecified)
0

---

System: CAOV3
Assay: Primary qHTS to identify gynecologic anti-cancer compounds using libraries of approved drugs and bioactive compounds (AID 1345084); further: nearly all actives have a fitted effect of over 55% in size
Conditions: Gynecologic cancer cell panel viability, ATPlite luminescence, 48 h; series mostly up to 57.5 µM
Inconclusive results are not listed. Calls of active or inactive are those of the source. The call rests on the fitted dose curve; in most records, active means well fitted cell-killing curve with a large enough effect; inconclusive means small, poorly fitted or top-dose-only effect, or effect the other way; inactive means flat fitted curve, though single readings scatter. *1 amine or outer side, *2 acyl side, *3 side chain or, on linkers, in order; H or OH if unused. Where a SMILES comes first, the peptide text is derived from it. [ ]: non-standard residue; d: D form. The star is where a group is joined. Dolaproine = CO[C@@H]([C@@H]1CCCN1)[C@@H](C)C(=O)O; Dil = CC[C@H](C)[C@H](NC)[C@@H](CC(=O)O)OC; X5 = CC(CC(O[*:1])C(=O)[*:2])C(=O)O; Doe = c1ccc(C[C@H](N*)c2nccs2)cc1; NMeV = CN[CH](C(=O)O)C(C)C; NMeA = CN[CH](C)C(=O)O; Aib = CC(C)(N)C(=O)O; βAla = NCCC(=O)O
Give one outcome, nothing more. List: label 1 = active, label 0 = inactive

1. CC1=C[C@H]2O[C@@H]3[C@H](O)[C@@H](O)[C@](C)([C@@]2(CO)C[C@@H]1O)[C@]31CO1 : label 1
2. CCC1CC2CN3CCc4c([nH]c5ccccc45)C(C(=O)OC)(C2)C13 (stereo unspecified) : label 0
3. CC1CCCC(=O)CCC/C=C/c2cc(O)cc(O)c2C(=O)O1 (stereo unspecified) : label 0
4. COc1cc(N2CCN(C)CC2)ccc1N : label 0
5. C=C(C)[C@@]12O[C@@H]1[C@@]1(C)C(=CC2=O)CC[C@@H](OC(C)=O)[C@@H]1C : label 0
6. CN1CCc2cc3c(cc2[C@H]1[C@@H]1OC(=O)c2c1ccc1c2OCO1)OCO3 : label 0
7. CC(C)[C@H]1OC(=O)[C@H](Cc2ccccc2)N(C)C(=O)[C@@H](C(C)C)OC(=O)[C@H](Cc2ccccc2)N(C)C(=O)[C@@H](C(C)C)OC(=O)[C@H](Cc2ccccc2)N(C)C1=O : label 0
8. CCC(C)C1NC(=O)C2CCCN2C(=O)C(CC(C)C(=O)O)OC(=O)CCNC(=O)C(C)N(C)C(=O)C(C(C)C)N(C)C1=O (stereo unspecified) (cyclo([X5]PI[NMeV][NMeA][βAla]); configuration not given here) : label 0
9. Cc1c(N2C(=O)[C@@H]3[C@H](O)CCN3C2=O)ccc(C#N)c1Cl : label 0
10. C=CCN1CC[C@]23c4c5ccc(O)c4O[C@H]2[C@@H](O)CC[C@@]3(O)[C@H]1C5 : label 0

Any idea what this test logged for CCC1C2CC3C4N(C)c5ccccc5C45CC(C2C5O)N3C1O (stereo unspecified) ?
label 0

Another compound to look at: CC1=CC(=O)[C@@H](O)[C@]2(C)C3[C@@H](O)[C@@H]4OC(=O)[C@@H]([C@H]4C)[C@]3(C)C(=O)[C@H](O)[C@@H]12 (stereo partly specified)
label 0

Another compound to look at: C/C=C1/CN2CC[C@]34C(=Nc5ccccc53)[C@@H]2C[C@@H]1[C@H]4C(=O)OC
label 0

Another compound to look at: CC/C=C/C=C/C1(C)OC(OC)=C(C(=O)C2C(C)C(=O)c3cc(OC)c(O)c(O)c3C2(C)O)C1=O (stereo unspecified)
label 0

Another compound to look at: CC[C@H](C)[C@@H]([C@@H](CC(=O)N1CCC[C@H]1[C@H](OC)[C@@H](C)C(=O)N[C@@H](Cc1ccccc1)c1nccs1)OC)N(C)C(=O)[C@@H](NC(=O)C(C)(C)N)C(C)C (H-[Aib]V[Dil][Dolaproine]-Doe)
label 0

Another compound to look at: C[C@H]1CCC/C=C/C2C[C@H](O)C[C@H]2[C@H](O)/C=C/C(=O)O1 (stereo partly specified)
label 1

---

Experiment: qHTS assay for small molecule disruptors of mitochondrial membrane potential screened against the NCATS CANVASS Library (AID 1347389); further: on the % scale 0 is the no-effect control and ±100 the full control effect; nearly all actives have a fitted effect of over 60% in size
Settings: HepG2 mitochondrial membrane potential, m-MPI red/green ratio, 1.5 h; series mostly up to 46.1 µM
Records with an inconclusive call do not appear. Active and inactive are the calls of the source. Calls follow the shape of the dose curve; as a rule, active = well fitted inhibition curve with a large enough effect; inconclusive = small, poorly fitted or top-dose-only effect; inactive = flat fitted curve, though single readings scatter.
Give one outcome, nothing more. List: active, inactive

1) COc1ccc2c3c([nH]c2c1)C(C)=NCC3 : inactive
2) c1ccc2c3c([nH]c2c1)CNCC3 : inactive
3) CNCCc1ccc(O)cc1 : inactive
4) C[C@]12CC(O)C3[C@@H](CCC4C[C@@H](O)CC[C@@]43CO)[C@@]1(O)CCC2C1=CC(=O)OC1 (some centres undefined) : inactive
5) C=C1[C@@H](C)[C@H]2[C@H](Cc3ccccc3)NC(=O)[C@]23OC(=O)/C=C/[C@H](O)CCC[C@@H](C)C/C=C/[C@H]3[C@@H]1O : inactive

Any idea what this test logged for NCCc1ccccc1 ?
inactive

Another molecule to look at: CCC[C@H]1CC[C@H]2[C@H](C)CCC[C@H]2N1
inactive

Another molecule to look at: CC=C1CN(C=O)[C@H]2C[C@@H]1[C@@H](C(=O)OC)[C@@]13CCOC21Nc1ccccc13 (some centres undefined)
inactive

Another molecule to look at: COc1ccc(C23Oc4cc(OC)cc(OC)c4[C@](O)([C@H](c4ccccc4)C2C(=O)NCCCCNC(=O)c2ccccc2)[C@@H]3O)cc1 (some centres undefined)
inactive

Another molecule to look at: CC1=CC2CC[C@@H]3[C@@H](C)C[C@H](C)[C@@H](C1)N23 (some centres undefined)
inactive

Another molecule to look at: CC[N@@+]1([O-])C[C@]2(C)CC[C@@H](O)[C@@]34C5C[C@H]6CC[C@@]5(C(C[C@H]23)C41)[C@H](O)[C@@]6(O)CO (some centres undefined)
inactive
